# reported EC50; entries follow
TESTED_SYSTEM: T1, Sortilin SORTECDBAP_hB45678 (human/tetraodon chimera)
T1 construct: Shuffle construct: chimeric human/tetraodon Sortilin ECD with BAP tag
T1 chain: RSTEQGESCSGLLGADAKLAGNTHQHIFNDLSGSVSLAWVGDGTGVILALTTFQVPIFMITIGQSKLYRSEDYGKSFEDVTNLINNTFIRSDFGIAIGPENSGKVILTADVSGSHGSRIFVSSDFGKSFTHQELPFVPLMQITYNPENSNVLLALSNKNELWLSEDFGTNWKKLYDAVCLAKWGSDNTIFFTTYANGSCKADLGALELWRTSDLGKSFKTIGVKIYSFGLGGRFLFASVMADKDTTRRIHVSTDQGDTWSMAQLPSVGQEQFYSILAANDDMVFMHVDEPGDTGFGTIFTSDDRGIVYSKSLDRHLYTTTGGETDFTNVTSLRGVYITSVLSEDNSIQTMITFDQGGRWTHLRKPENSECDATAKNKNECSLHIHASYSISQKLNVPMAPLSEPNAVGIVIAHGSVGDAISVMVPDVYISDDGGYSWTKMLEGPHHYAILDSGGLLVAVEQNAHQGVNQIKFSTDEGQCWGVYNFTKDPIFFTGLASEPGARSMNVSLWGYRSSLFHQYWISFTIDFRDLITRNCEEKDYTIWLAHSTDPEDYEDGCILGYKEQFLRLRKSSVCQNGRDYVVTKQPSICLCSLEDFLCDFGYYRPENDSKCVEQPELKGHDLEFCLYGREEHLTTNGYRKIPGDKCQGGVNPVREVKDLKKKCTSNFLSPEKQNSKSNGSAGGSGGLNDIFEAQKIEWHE
PROTOCOL: BLI (Octet384RED)
MEASURE_NAME: EC50 (ng/mL)

* Antibody 6003-1286 (antibody, human IgG1, V domains shown) VH: EVQLLESGGGLVQPGGSLRLSCAASGFTFSSYAMSWVRQAPGKGLEWVSTISGRGGNTYYADSVKGRFTISRDNSKNTLYLQMNSLRAEDAAVYYCANIYSHYWYFDLWGRGTLVTVSS VL: EIVLTQSPATLSLSPGERATLSCRASQSVNSYLAWYQQKPGQAPRLLIYDASNRATGIPARFSGSGSGTDFTLTISSLEPEDFAVYYCQQRSNWPLTFGGGTKVEIK | 1.02
* Antibody 6003-083 (antibody, human IgG1, V domains shown) VH: EVQLLESGGGLVQPGGSLRLSCAASGFTFSSYAMSWVRQAPGKGLEWVSTISGRGGSTYYADSVKGRFTISRDNSKNTLYLQMNSLRAEDTAVYYCAIVATMYWYFDLWGRGTLVTVSS VL: EIVLTQSPATLSLSPGERATLSCRASQSVSSYLAWYQQKPGQAPRLLIYDASNRATGIPARFSGSGSGTDFTLTISSLEPEDFAVYYCQQRSNWPITFGQGTRLEIK | 0.92
* Antibody 6003-028 (antibody, human IgG1, V domains shown) VH: EVQLLESGGGLVQPGGSLRLSCAASGFTFSSYAMSWVRQAPGKGLEWVSTISGRGGSTYYADSVKGRFTISRDNSKNTLYLQMNSLRAEDTAVYYCANLYSNYWYFDLWGRGTLVTVSS VL: EIVLTQSPATLSLSPGERATLSCRASQSVSSFLAWYQQKPGQAPRLLIYDASNRATGIPARFSGSGSGTDFTLTISSLEPEDFAVYYCQQRSNWPLTFGGGTKVEIK | 1.96
